Biological target: T1, CEACAM1 (Sino Biological) (human, UniProt P13688 35-428, limits assumed)
T1 construct: may be the same as CEACAM1-HIS; also called hCEACAM1; biotinylated soluble CEACAM1
T1 sequence: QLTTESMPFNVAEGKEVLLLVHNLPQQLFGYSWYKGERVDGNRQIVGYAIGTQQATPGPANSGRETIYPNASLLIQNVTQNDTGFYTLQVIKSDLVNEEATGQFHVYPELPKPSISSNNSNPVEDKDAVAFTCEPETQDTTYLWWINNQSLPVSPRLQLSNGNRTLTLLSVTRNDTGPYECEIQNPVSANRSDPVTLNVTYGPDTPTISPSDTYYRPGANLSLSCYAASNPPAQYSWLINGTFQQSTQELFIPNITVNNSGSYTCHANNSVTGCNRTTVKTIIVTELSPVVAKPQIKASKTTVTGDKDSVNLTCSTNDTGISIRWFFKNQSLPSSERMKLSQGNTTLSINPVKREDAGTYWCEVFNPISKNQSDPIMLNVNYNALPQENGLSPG
Assay: SPR single-cycle
reported.metric: fold better than Parent (KD)

>>> result("He17/L1 (antibody, IgG4, V domains shown, IgG4 S241P, kappa; also called 17 / 1; H17/L1) VH: EVQLLESGGGLVQPGGSLRLSCAASGFSFSDYYLYWVRQAPGKGLEWVATISVGGGQTSYADSVKGRFTISRDNSKNTLYLQMNSLRAEDTAMYYCTRARTYGPAWFAYWGQGTLVTVSS VL: DIVMTQSPDSLAVSLGERATINCKSSQSLLNSANQKNYLAWYQQKPGQPPKLLIYFASTRESGVPDRFSGSGSGTDFTLTISSLQAEDVAVYYCQSHYPFYYTFGGGTKVEIK")
"2.03 fold"

Query: If you can, please state the reported fold better than Parent (KD) value of He3/L18 (antibody, IgG4, V domains shown, IgG4 S241P, kappa) VH: EVQLLESGGGLVQPGGSLRLSCAASGFSFSDYYLYWVRQAPGKGLEWVATISVGGGQTSYADSVKGRFTISRDNSKNTLYLQMNSLRAEDTAMYYCTRALTYGPAWLAYWGQGTLVTVSS VL: DIVMTQSPDSLAVSLGERATINCKSSQSLLNSANQKNYLAWYQQKPGQPPKLLIYFASTRESGVPDRFSGSGSGTDFTLTISSLQAEDVAVYYCQSHFPYPFTFGGGTKVEIK .
Result: 1.94 fold

src = patent US20250388666A1
